# Tested on: Escherichia coli
# test.description: Antimicrobial activity against Escherichia coli J53 by Etest
# Format: functional
measured.metric: MIC (µg/mL)
Give just the numeric value; µg/mL need not be written.

molecule | measured.metric | value.unit | measured
CC1(C)S[C@@H]2[C@H](NC(=O)[C@H](C(=O)O)c3ccsc3)C(=O)N2[C@H]1C(=O)O [TICARCILLIN] | MIC | µg/mL | 4
CO/N=C(\C(=O)N[C@@H]1C(=O)N2C(C(=O)O)=C(COC(C)=O)CS[C@H]12)c1csc(N)n1 [CEFOTAXIME] | MIC | µg/mL | 0.5
CO[C@@]1(NC(=O)C(C(=O)O)c2ccc(O)cc2)C(=O)N2C(C(=O)O)=C(CSc3nnnn3C)CO[C@@H]21 (stereo partly specified) [MOXALACTAM] | MIC | µg/mL | 1

Input: Value lookup for MIC; key = CO[C@@]1(NC(=O)Cc2cccs2)C(=O)N2C(C(=O)O)=C(COC(N)=O)CS[C@@H]21 [CEFOXITIN]
Output: 4

Input: Need MIC of CC(C)(O/N=C(\C(=O)N[C@@H]1C(=O)N2C(C(=O)[O-])=C(C[n+]3ccccc3)CS[C@H]12)c1csc(N)n1)C(=O)O [CEFTAZIDIME] , thanks.
Output: 1

Input: I'd like to know its MIC. The molecule in question is C[C@H]1[C@H](NC(=O)/C(=N\OC(C)(C)C(=O)O)c2csc(N)n2)C(=O)N1S(=O)(=O)O [AZTREONAM]
Output: 0.5

Input: Given the entry CCN1CCN(C(=O)N[C@@H](C(=O)N[C@@H]2C(=O)N3[C@@H]2SC(C)(C)[C@@H]3C(=O)O)c2ccccc2)C(=O)C1=O [PIPERACILLIN] , report its measured MIC.
Output: 4

Input: Which value of MIC has been reported for CC1(C)S[C@@H]2[C@H](NC(=O)[C@H](N)c3ccc(O)cc3)C(=O)N2[C@H]1C(=O)O [AMOXICILLIN] in the records?
Output: 1

Input: Entry under review: `CO/N=C(\C(=O)N[C@@H]1C(=O)N2C(C(=O)[O-])=C(C[N+]3(C)CCCC3)CS[C@H]12)c1csc(N)n1` . Reported MIC?
Output: 0.125
